assay_system: T1, GIP Receptor (Homo sapiens, UniProt P48546)
T1 construct: host or cells: HEK293T
T1 sequence (P48546 22-466): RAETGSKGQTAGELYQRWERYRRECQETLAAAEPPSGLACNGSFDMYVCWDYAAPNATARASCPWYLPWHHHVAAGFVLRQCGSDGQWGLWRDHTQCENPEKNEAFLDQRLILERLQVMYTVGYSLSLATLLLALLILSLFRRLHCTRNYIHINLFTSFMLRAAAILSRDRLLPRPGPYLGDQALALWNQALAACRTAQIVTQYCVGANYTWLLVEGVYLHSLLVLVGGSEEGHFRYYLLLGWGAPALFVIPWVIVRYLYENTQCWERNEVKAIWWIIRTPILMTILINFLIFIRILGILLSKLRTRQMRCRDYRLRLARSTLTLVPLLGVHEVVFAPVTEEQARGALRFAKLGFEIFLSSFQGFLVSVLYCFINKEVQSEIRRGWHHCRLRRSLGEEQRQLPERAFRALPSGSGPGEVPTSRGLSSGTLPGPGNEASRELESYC
assay_protocol: GIP receptor-mediated bioluminescence in HEK293T cells with chimeric promiscuous G protein (FIG. 5, Table II)
Format: cell-based
condition_label: signal induced by maximal GIP (1 μM) divided by signal induced by buffer alone
assay_metric: Signal: background with GIP

| molecule | result |
| --- | --- |
| Cyto-clytin wt: Wild type Clytin (wt-Clytin) amino acid sequence, SEQ ID NO:1; cytosolic (protein, listed as Clytia gregaria) MADTASKYAVKLRPNFDNPKWVNRHKFMFNFLDINGDGKITLDEIVSKASDDICAKLGATPEQTKRHQDAVEAFFKKIGMDYGKEVEFPAFVDGWKELANYDLKLWSQNKKSLIRDWGEAVFDIFDKDGSGSISLDEWKAYGRISGICSSDEDAEKTFKHCDLDNSGKLDVDEMTRQHLGFWYTLDPNADGLYGNFVP | 7.0 |
| Mt-clytin K168N: Mitochondrial K168N modified Clytin, SEQ ID NO:18 (protein) MSVLTPLLLRGLTGSARRLPVPRAKIHSLPPEGKLRPNFDNPKWVNRHKFMFNFLDINGDGKITLDEIVSKASDDICAKLGATPEQTKRHQDAVEAFFKKIGMDYGKEVEFPAFVDGWKELANYDLKLWSQNKKSLIRDWGEAVFDIFDKDGSGSISLDEWKAYGRISGICSSDEDAEKTFKHCDLDNSGNLDVDEMTRQHLGFWYTLDPNADGLYGNFVP | 115.9 |
| Mt-aequorin: Mitochondrial Wild-type Aequorin (mt-Aequorin), SEQ ID NO:6 (protein, listed as Aequorea victoria) MSVLTPLLLRGLTGSARRLPVPRAKIHSLPPEGKLTSDFDNPRWIGRHKHMFNFLDVNHNGKISLDEMVYKASDIVINNLGATPEQAKRHKDAVEAFFGGAGMKYGVETDWPAYIEGWKKLATDELEKYAKNEPTLIRIWGDALFDIVDKDQNGAITLDEWKAYTKAAGIIQSSEDCEETFRVCDIDESGQLDVDEMTRQHLGFWYTMDPACEKLYGGAVP | 84.7 |
